Source: paper PMC4552634

- Tested on: P. falciparum stage V gametocytes
- Parameters: BacTiter-Glo ATP luminescence viability of purified stage V gametocytes in 384-well plates, per cent inhibition versus DMSO
- measurement_setup: 48 h, 5 µM; inhibitor
In all, about 13,000 compounds went through this assay and about 3,200 (25%) showed an effect of 50% or more. This is one part of the list.
Binary call on % Inhibition: yes (1) from -10% upward, no (0) beneath that.

>>> group("CCNc1cc(C(=O)N[C@@H](Cc2ccccc2)[C@H](O)CNCCc2cccc3ccccc23)cc(N2CCCC2=O)c1")
"yes (1)"
>>> group("CC[C@H](NC(=O)c1c(CN2CCC(N3CCCCC3)CC2)c(-c2ccccc2)nc2c(Cl)c(O)ccc12)c1ccccc1")
"yes (1)"
>>> group("Cc1sc(C)c(C(F)(F)F)c1CNCCCNc1cc(=O)c2ccccc2[nH]1")
"no (0)"
>>> group("FC(F)(F)COc1ccc2ccccc2c1CNCCCCCCNCc1c(OCC(F)(F)F)ccc2ccccc12")
"yes (1)"
>>> group("COc1ccc(-c2ncnc(C(F)(F)F)c2-c2ccc(Cl)cc2)c(O)c1")
"yes (1)"
>>> group("CC1CN=C(c2ccc(NC(=O)Nc3ccc(C4=NCC(C)N4)cc3)cc2)N1 (stereo not shown)")
"no (0)"
>>> group("CCCc1cc(Cc2cnc(N)nc2N)cc(CCC)c1OCCCCC(=O)OC")
"no (0)"
>>> group("CCc1cccc2c(C#N)cn(CC(=O)Nc3ccc(OC)cc3)c12")
"yes (1)"
>>> group("CC(C)Sc1nc2c(c(=O)n1CCc1ccccc1)C1(CCCCC1)Cc1ccccc1-2")
"no (0)"
>>> group("O=C(/C=C/c1ccc(Cl)c(Cl)c1)N1CCC(CCN2CCc3[nH]c4ccccc4c3C2)CC1")
"no (0)"
>>> group("COc1ccc(-c2cccc(CNC3CCN(CC4Cn5c(=O)ccc6ccc(F)c4c65)CC3)c2)cc1 (stereo not shown)")
"no (0)"
>>> group("COc1ccccc1CCCN1C(=O)C(c2ccccc2)(c2ccccc2)N=C1N")
"yes (1)"
>>> group("COC1CCC(C(=O)Nc2ccc(-c3cccc(-c4nc5c(C)cccc5[nH]4)c3)cc2)CC1 (stereo not shown)")
"no (0)"
>>> group("Cc1ccc(-c2nnc(Nc3ccc(CC(N)=O)cc3)c3ccccc23)cc1S(=O)(=O)NCC1CCCO1 (stereo not shown)")
"yes (1)"
>>> group("COc1ccc(CC(=O)Nc2ccc(Nc3nc(C)cc(N(C)C)n3)cc2)cc1")
"yes (1)"
>>> group("FC(F)(F)Oc1ccc(Nc2cc(-c3ccncc3)nc(-c3cccnc3)n2)cc1")
"yes (1)"

----------
- System: P. falciparum stage V gametocytes
- Parameters: BacTiter-Glo ATP luminescence viability of purified stage V gametocytes in 384-well plates, per cent inhibition versus DMSO
- measurement_setup: 48 h, 5 µM; inhibitor
Among all 13,000 compounds or so, about 3,200 (25%) showed an effect of 50% or more. The list shows a part of the results.
measurement_label: % Inhibition

>>> obs_value("COc1ccccc1Nc1nc(C)cc(NCc2ccc(-n3ccnc3)cc2)n1")
"11.88%"
>>> obs_value("O=C(NCCc1ccccc1)N(Cc1ccccc1-c1cccc(CNCCc2ccccc2)c1)C1CCN(Cc2ccccc2)CC1")
"46.01%"
>>> obs_value("O=C(NCCc1ccccc1)N(Cc1ccccc1-c1ccc(CNCCc2ccccc2)cc1)C1CCN(Cc2ccccc2)CC1")
"104.9%"
>>> obs_value("CC(C)CNCc1cccc(-c2ccccc2CN(C(=O)NCCc2ccccc2)C2CCN(Cc3ccccc3)CC2)c1")
"89.6%"
